# procedureDetails: MTS cytotoxicity alongside the Huh7-J20 SEAP assay
# runParameters: human, Huh7-J20 cells
measuredAttribute: CC50 (µM)
Numbers only, in µM.

structureString	measurementUnits	CC50
CC(=O)O[C@H]1[C@H](C)O[C@H](OC[C@H]2O[C@@H](n3ccc(=O)n(C(=O)c4ccccc4)c3=O)[C@@H]3OC(C)(C)O[C@@H]32)C[C@@H]1O[Si](C)(C)C(C)(C)C	µM	113

Would you kindly look at the next entry?
Query block: What does the record list as CC50 for `CC1(C)O[C@@H]2[C@H](O1)[C@@H](CO[C@@H]1C[C@@H](OCc3ccccc3)[C@H](OCc3ccccc3)[C@@H](COCc3ccccc3)O1)O[C@H]2n1ccc(=O)n(C(=O)c2ccccc2)c1=O` ?
Result block: 142

====

Could you please report measured CC50 for the items listed next?
# procedureDetails: in vitro
# runParameters: human, CC50, Huh-7.5 cells, MTS assay, 72 h
One number for each entry, in µM.

The following compounds have reported results that may help.
structureString	measuredAttribute	reported
CC1(C)O[C@@H]2[C@H](O1)[C@@H](CO[C@@H]1C[C@@H](OCc3ccccc3)[C@H](OCc3ccccc3)[C@@H](CO[Si](C)(C)C(C)(C)C)O1)O[C@H]2n1ccc(=O)[nH]c1=O	CC50	83
CC(=O)OC[C@H]1O[C@H](OC[C@H]2O[C@@H](n3ccc(=O)n(Cc4ccccc4)c3=O)[C@@H]3OC(C)(C)O[C@@H]32)C[C@@H](OC(C)=O)[C@@H]1OC(C)=O	CC50	223
O=c1ccn([C@@H]2O[C@H](CO[C@@H]3C[C@@H](O)[C@H](O)[C@@H](CO)O3)[C@@H](O)[C@H]2O)c(=O)[nH]1	CC50	245
CC(=O)O[C@H]1[C@H](C)O[C@H](OC[C@H]2O[C@@H](n3ccc(=O)[nH]c3=O)[C@@H]3OC(C)(C)O[C@@H]32)C[C@@H]1O[Si](C)(C)C(C)(C)C	CC50	85
CC(=O)OC[C@H]1O[C@H](OC[C@H]2O[C@@H](n3ccc(=O)[nH]c3=O)[C@@H]3OC(C)(C)O[C@@H]32)C[C@@H](OC(C)=O)[C@@H]1OC(C)=O	CC50	210

For each entry beneath this line, provide reported CC50.
1. CC1(C)O[C@@H]2[C@H](O1)[C@@H](CO[C@@H]1C[C@@H](OCc3ccccc3)[C@H](OCc3ccccc3)[C@@H](COCc3ccccc3)O1)O[C@H]2n1ccc(=O)n(C(=O)c2ccccc2)c1=O
2. CC1(C)O[C@@H]2[C@H](O1)[C@@H](CO[C@@H]1C[C@@H](OCc3ccccc3)[C@H](OCc3ccccc3)[C@@H](COCc3ccccc3)O1)O[C@H]2n1ccc(=O)[nH]c1=O

Result block:
151
89

Query block: What value of CC50 has been recorded for this entry: `CC(=O)O[C@H]1[C@H](C)O[C@H](OC[C@H]2O[C@@H](n3ccc(=O)n(C(=O)c4ccccc4)c3=O)[C@@H]3OC(C)(C)O[C@@H]32)C[C@@H]1O[Si](C)(C)C(C)(C)C`
Result block: 119
